Below: a set of entries, each annotated with reported protein stability index.
B1: FAM189A2 (parent)
chain: PRCDLVDLGEGKICFCCEEFQPAK

variants of: B1; test: protein stability index of a GFP-peptide fusion (GPS, HEK-293T) (PSI 1-6); higher = more stable; conditions: c terminus: a fixed tail appended;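 further: lentivirally expressed fusions sorted by FACS into six bins by GFP to DsRed ratio, PSI derived from sequencing read proportions per bin multiplied by bin number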

residue_change=Q21D test_value=3.61
residue_change=C14K test_value=3.94
residue_change=C17Y test_value=2.66

# ---- query variant ----
Query string: Supply reported protein stability index belonging to this variant: G11C
Result string: 2.45
